All values here come from patent US20150104459A1.

# test system: recombinant soluble homotrimeric HA of A/California/4/09 (H1N1) (Influenza A virus A/California/04/2009 (H1N1))
# assay name: HA microarray, BCC supernatant
# experimental parameters: remark: other sources report otherwise
Exercise: state measured Trimeric HA Binding RLU for each of the binders provided.
Give bare numbers, in RLU.

binder	measurement units	Trimeric HA Binding RLU
TCN-544 (5082_A19) (antibody, V domains shown) VH: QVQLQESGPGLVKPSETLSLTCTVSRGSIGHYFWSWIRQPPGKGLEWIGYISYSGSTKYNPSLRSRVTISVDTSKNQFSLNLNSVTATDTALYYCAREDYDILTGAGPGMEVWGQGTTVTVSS VL: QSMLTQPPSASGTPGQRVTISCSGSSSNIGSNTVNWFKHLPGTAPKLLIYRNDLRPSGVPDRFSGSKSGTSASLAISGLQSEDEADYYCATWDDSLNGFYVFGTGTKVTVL	RLU	281
TCN-537 (3194_D21) (antibody, V domains shown) VH: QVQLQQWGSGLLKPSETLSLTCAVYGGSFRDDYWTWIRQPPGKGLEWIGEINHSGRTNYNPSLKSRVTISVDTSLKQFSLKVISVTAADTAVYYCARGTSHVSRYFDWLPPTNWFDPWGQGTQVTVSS VL: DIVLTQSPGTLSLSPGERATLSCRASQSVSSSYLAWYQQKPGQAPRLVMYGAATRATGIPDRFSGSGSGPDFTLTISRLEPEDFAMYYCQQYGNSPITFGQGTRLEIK	RLU	21900
TCN-553 (5261_C18) (antibody, V domains shown) VH: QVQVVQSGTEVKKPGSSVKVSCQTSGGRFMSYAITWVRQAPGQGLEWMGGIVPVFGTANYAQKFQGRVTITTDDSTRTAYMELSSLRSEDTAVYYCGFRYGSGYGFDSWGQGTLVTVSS VL: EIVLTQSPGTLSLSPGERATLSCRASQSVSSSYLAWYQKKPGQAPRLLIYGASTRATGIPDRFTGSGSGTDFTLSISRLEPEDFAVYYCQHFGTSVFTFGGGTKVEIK	RLU	20300

Below are 2 binders. Give each one its Trimeric HA Binding RLU.
1. TCN-546 (5089_L08) (antibody, V domains shown) VH: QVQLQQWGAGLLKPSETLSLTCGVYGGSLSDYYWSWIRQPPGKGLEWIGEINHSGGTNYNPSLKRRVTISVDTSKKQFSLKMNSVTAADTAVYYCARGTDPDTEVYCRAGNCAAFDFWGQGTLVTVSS VL: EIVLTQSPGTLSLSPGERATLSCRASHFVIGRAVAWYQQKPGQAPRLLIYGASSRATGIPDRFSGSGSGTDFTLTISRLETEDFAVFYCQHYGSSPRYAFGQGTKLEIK
2. TCN-527 (5086_C06) (antibody, V domains shown) VH: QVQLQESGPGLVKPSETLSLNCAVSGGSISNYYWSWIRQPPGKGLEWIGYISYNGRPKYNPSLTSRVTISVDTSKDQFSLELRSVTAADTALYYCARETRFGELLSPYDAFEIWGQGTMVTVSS VL: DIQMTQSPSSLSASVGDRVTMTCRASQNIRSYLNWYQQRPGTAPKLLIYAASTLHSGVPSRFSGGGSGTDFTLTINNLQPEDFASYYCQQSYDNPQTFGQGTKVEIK

Ans:
1. 350
2. 28000
